- TEST_PROTOCOL: Permeability coefficient through artificial membrane in presence of unstirred water layer by PAMPA
Note that class boundaries on Papp are low: < 9 ×10⁻⁶ cm/s; middle: ≥ 9 ×10⁻⁶ cm/s and < 30 ×10⁻⁶ cm/s; high: ≥ 30 ×10⁻⁶ cm/s

These recorded examples may help you get a feel for the data.
COMPOUND	CLASS_LABEL
Cc1cc(C)cc(C(=O)N(NC(=O)c2ccc3c(c2C)CCCO3)C(C)(C)C)c1 [CHROMAFENOZIDE]	middle
COC(=O)c1ccccc1C(=O)OC [DIMETHYL PHTHALATE]	high
Cc1ccccc1O	high
COc1cccc(C(=O)NN(C(=O)c2cc(C)cc(C)c2)C(C)(C)C)c1C [METHOXYFENOZIDE]	middle
c1ccc(Nc2ccccc2)cc1	low
COc1nn(CSP(=S)(OC)OC)c(=O)s1	middle
Cc1ccc(O)c(C)c1	middle
COP1(=S)OCc2ccccc2O1 (stereo not drawn)	middle

Prompt line: Which category fits this record: CCc1ccc(C)nc1
Response line: low

Prompt line: Which category fits this record: Oc1ccccc1
Response line: high

Prompt line: Which category fits this record: c1ccc(-c2ccccc2)cc1
Response line: low

Prompt line: Which category fits this record: O=[N+]([O-])NC1=NCCN1Cc1ccc(Cl)nc1
Response line: low

Prompt line: Which category fits this record: Oc1ccc(O)cc1 [HYDROQUINONE]
Response line: low

---

- TEST_PROTOCOL: Permeability coefficient through artificial membrane in presence of stirred water layer
- CONDITION_INFO: PAMPA
Note that class boundaries on Papp are lower band: < 9 ×10⁻⁶ cm/s; central band: ≥ 9 ×10⁻⁶ cm/s and < 100 ×10⁻⁶ cm/s; upper band: ≥ 100 ×10⁻⁶ cm/s

MOLECULE	CLASS_LABEL
Oc1ccc(Cl)cc1Cl [2,4-DICHLOROPHENOL]	upper band
CCn1cc(C(=O)O)c(=O)c2cc(F)c(N3CCNCC3)cc21 [NORFLOXACIN]	lower band
CCC(C)c1ccccc1OC(=O)NC (configuration not stated) [FENOBUCARB]	upper band
O=C(O)c1ccccc1O [SALICYLIC ACID]	lower band
C=CCOc1ccccc1OCC(O)CNC(C)C (configuration not stated) [OXPRENOLOL]	central band
N#Cc1ccc(O)cc1 [4-CYANOPHENOL]	central band
c1ccc(-c2ccccc2)cc1 [BIPHENYL]	central band
Cc1ccccc1O [ORTHOCRESOL]	upper band

Prompt line: Which category fits this record: O=[N+]([O-])c1cc(Cl)ccc1Cl
Response line: central band

Prompt line: Which category fits this record: O=C(N[C@H](CO)[C@H](O)c1ccc([N+](=O)[O-])cc1)C(Cl)Cl [CHLORAMPHENICOL]
Response line: lower band

Prompt line: Which category fits this record: C[C@]12CC[C@H]3[C@@H](CCC4=CC(=O)CC[C@@]43C)[C@@H]1CC[C@@H]2O [TESTOSTERONE]
Response line: upper band

Prompt line: Which category fits this record: c1ccc(Nc2ccccc2)cc1 [DIPHENYLAMINE]
Response line: central band

---

- TEST_PROTOCOL: Partition coefficient, log P of the compound
- CONDITION_INFO: octanol/water
VALUE_KIND: logP
Response field accepts a number only; no unit should be typed.

Study these solved cases before continuing.
COMPOUND	logP
CN1C(C(=O)Nc2ccccn2)=C(O)c2ccccc2S1(=O)=O [PIROXICAM]	1.98
CC(=O)N[C@@H](Cc1c[nH]c2ccccc12)C(=O)N[C@H](C(N)=O)C(C)C	0.73
OCCc1c[nH]c2ccccc12 [TRYPTOPHOL]	1.54
O=C1CNC(=O)[C@H](Cc2c[nH]c3ccccc23)N1	0.07
O=[N+]([O-])NC1=NCCN1Cc1ccc(Cl)nc1 [IMIDACLOPRID]	0.59

Prompt line: Using the record for CCc1ccc(C)nc1 , report its logP.
Response line: 3.3

Prompt line: Using the record for CC(C)OP(=O)(OC(C)C)SCc1ccccc1 [IPROBENFOS] , report its logP.
Response line: 3.21

Prompt line: Using the record for O=C1NC(=O)C(c2ccccc2)(c2ccccc2)N1 [PHENYTOIN] , report its logP.
Response line: 2.26

---

- TEST_PROTOCOL: Permeability coefficient through artificial membrane in presence of unstirred water layer by PAMPA
Decision: Papp compared against 40 ×10⁻⁶ cm/s; not below it gives rule met, below it gives rule not met.

These recorded examples may help you get a feel for the data.
MOLECULE	CLASS_LABEL
O=C(O)c1ccccc1Nc1ccccc1 [FENAMIC ACID]	rule not met
Nc1ccc(Cl)cc1 [4-CHLOROANILINE]	rule met
CCc1ccc(C(=O)NN(C(=O)c2cc(C)cc(C)c2)C(C)(C)C)cc1 [TEBUFENOZIDE]	rule not met
Nc1ccccc1Cl	rule not met

// switching to the query molecule
Prompt line: For this molecule, is measured Papp 40 ×10⁻⁶ cm/s or higher? Nc1ccccc1 [ANILINE]
Response line: rule met
